Measured In vivo Distribution blood values are reported for all entries that follow.
- Procedure Summary: In vivo biodistribution of Tc-99m chelates in rat inflammation studies
- Set-up: species or system male Wistar rats
- Experimental Parameters: Tc-99m chelate i.v. tail vein, average of two rats; time (min): RP-022 90, RP-043 88, RP-050 109, RP-063 30, RP-065 30, IgG 120, RP-049 not given
Side-chain parts run from the residue outwards. [ ]: non-standard residue; d: D form. The star is where a group is joined. Picolinoyl = O=C(c1ccccn1)*; Nle = CCCC[C@H](N)C(=O)O; Acm = CC(=O)NC*; For = O=C*
Answer in % per organ, number only, no unit symbol.

Substance: (Pic-Ser-Cys(Acm)-Gly)-Lys-Pro-Pro-Arg-OH (Picolinoyl-SC(Acm)GKPPR-OH; SMILES CC(=O)NCSC[C@H](NC(=O)[C@H](CO)NC(=O)c1ccccn1)C(=O)NCC(=O)N[C@@H](CCCCN)C(=O)N1CCC[C@H]1C(=O)N1CCC[C@H]1C(=O)N[C@@H](CCCNC(=N)N)C(=O)O) [RP-065, ID NO: 10]
Recorded Value: 3.520
//
Substance: Pic-Gly-Cys(Acm)-Gly-OH (Picolinoyl-Gly-Cys(Acm)-Gly-OH; SMILES CC(=O)NCSC[C@H](NC(=O)CNC(=O)c1ccccn1)C(=O)NCC(=O)O) [RP-049, ID NO: 8]
Recorded Value: 0.187

Could you tell me which In vivo Distribution blood is on file for (Pic-Ser-Cys(Acm)-Gly)-Thr-Lys-Pro-Pro-Arg-OH (Picolinoyl-SC(Acm)GTKPPR-OH; SMILES CC(=O)NCSC[C@H](NC(=O)[C@H](CO)NC(=O)c1ccccn1)C(=O)NCC(=O)N[C@H](C(=O)N[C@@H](CCCCN)C(=O)N1CCC[C@H]1C(=O)N1CCC[C@H]1C(=O)N[C@@H](CCCNC(=N)N)C(=O)O)[C@@H](C)O) [RP-063, ID NO: 9] ?
6.370

Could you tell me which In vivo Distribution blood is on file for (Pic-Gly-Cys-Gly)-εNH-Lys(-Gly-OH)-Tyr-Nleu-Phe-Leu-Nleu-for (For-[Nle]LF[Nle]YK([Gly-Cys-Gly-Picolinoyl])G-OH; SMILES CCCC[C@H](NC=O)C(=O)N[C@@H](CC(C)C)C(=O)N[C@@H](Cc1ccccc1)C(=O)N[C@@H](CCCC)C(=O)N[C@@H](Cc1ccc(O)cc1)C(=O)N[C@@H](CCCCNC(=O)CNC(=O)[C@H](CS)NC(=O)CNC(=O)c1ccccn1)C(=O)NCC(=O)O) [RP-022, ID NO: 11] ?
3.036
